molecular target: TRPV2 (Homo sapiens); experiment: Manual patch-clamp assay, hTRPV2 stable HEK-293 cells; assay type: cell-based; conditions: stimulus: 10 μM CBD; n=2; read-out: IC50 against TRPV2, patch-clamp assay
Sequence (Q9Y5S1 whole entry): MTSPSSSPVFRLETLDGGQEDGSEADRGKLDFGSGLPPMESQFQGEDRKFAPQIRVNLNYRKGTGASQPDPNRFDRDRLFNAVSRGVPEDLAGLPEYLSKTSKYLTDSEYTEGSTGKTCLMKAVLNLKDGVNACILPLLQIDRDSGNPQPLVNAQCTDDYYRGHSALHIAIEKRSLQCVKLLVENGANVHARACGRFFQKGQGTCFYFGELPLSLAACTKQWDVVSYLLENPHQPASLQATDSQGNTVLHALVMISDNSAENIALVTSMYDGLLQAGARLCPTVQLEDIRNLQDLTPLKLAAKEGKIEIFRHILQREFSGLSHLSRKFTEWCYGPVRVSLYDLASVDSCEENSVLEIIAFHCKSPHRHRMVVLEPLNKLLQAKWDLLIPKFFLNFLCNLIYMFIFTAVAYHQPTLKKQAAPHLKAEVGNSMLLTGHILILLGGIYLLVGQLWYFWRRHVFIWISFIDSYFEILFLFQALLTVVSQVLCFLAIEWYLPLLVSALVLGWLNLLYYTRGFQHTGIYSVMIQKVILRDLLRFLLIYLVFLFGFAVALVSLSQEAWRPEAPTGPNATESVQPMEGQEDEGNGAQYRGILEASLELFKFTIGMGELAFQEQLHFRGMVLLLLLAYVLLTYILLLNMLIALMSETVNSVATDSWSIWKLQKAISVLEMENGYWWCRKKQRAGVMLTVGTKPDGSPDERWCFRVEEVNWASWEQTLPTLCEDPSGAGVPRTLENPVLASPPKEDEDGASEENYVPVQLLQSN
observed property: IC50

Record `COc1cc(/C=C/C(=O)N2CCC=CC2=O)cc(OC)c1OC` , field IC50: > 100 µM

###

target: TRPM2 (Homo sapiens, UniProt O94759); assay: Fluorescence cell-based assay, TRPM2; conditions: calcium 5 dye, duplicate
Sequence (O94759 whole entry): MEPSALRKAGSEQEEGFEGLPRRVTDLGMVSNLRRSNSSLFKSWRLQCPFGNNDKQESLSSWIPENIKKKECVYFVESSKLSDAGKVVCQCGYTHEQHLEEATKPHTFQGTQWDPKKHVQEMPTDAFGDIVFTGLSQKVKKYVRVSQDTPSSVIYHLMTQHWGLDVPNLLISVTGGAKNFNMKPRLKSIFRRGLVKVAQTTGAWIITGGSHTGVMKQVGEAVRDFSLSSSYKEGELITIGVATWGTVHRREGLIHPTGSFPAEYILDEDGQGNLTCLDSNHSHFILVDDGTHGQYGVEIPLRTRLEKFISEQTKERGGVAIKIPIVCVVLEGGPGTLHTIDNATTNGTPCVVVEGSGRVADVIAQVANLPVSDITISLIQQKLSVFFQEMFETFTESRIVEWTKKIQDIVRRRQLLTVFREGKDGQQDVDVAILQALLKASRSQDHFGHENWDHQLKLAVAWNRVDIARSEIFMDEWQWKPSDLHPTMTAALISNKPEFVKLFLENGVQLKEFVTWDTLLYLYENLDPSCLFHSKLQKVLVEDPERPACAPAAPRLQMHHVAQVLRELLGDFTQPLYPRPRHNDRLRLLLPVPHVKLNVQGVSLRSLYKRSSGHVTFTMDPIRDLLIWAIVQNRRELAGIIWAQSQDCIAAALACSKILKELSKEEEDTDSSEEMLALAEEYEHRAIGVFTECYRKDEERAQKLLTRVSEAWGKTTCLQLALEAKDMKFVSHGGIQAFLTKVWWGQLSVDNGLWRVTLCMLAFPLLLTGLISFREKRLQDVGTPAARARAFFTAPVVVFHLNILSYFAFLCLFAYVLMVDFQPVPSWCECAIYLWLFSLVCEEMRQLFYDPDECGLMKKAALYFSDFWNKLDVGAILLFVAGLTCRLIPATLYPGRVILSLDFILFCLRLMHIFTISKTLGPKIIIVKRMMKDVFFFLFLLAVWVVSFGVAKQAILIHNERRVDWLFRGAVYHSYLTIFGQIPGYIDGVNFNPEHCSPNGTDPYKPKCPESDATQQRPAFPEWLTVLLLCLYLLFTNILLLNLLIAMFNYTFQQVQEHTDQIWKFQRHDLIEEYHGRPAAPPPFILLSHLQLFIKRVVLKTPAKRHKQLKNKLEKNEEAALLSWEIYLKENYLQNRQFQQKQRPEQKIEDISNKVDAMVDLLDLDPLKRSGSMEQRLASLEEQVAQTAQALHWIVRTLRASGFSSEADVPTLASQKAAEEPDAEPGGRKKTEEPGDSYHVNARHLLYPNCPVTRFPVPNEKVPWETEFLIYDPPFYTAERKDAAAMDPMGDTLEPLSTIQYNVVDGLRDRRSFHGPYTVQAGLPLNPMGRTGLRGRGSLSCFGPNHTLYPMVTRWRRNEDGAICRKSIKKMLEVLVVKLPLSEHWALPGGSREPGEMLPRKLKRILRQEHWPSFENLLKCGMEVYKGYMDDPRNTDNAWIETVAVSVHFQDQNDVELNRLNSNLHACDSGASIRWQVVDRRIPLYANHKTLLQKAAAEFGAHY
observed property: IC50

Item COc1cc(/C=C/C(=O)N2CCC=CC2=O)cc(OC)c1OC [Compound 1, piperlongumine] ; assay system TRPM2 (Homo sapiens, UniProt O94759); IC50 reported as > 100 µM

Source: patent US11273152B2
